- target-of-assay: PARP1 W589A (Homo sapiens, UniProt P09874 1-1014, W589A)
- Sequence (P09874 whole entry W589A): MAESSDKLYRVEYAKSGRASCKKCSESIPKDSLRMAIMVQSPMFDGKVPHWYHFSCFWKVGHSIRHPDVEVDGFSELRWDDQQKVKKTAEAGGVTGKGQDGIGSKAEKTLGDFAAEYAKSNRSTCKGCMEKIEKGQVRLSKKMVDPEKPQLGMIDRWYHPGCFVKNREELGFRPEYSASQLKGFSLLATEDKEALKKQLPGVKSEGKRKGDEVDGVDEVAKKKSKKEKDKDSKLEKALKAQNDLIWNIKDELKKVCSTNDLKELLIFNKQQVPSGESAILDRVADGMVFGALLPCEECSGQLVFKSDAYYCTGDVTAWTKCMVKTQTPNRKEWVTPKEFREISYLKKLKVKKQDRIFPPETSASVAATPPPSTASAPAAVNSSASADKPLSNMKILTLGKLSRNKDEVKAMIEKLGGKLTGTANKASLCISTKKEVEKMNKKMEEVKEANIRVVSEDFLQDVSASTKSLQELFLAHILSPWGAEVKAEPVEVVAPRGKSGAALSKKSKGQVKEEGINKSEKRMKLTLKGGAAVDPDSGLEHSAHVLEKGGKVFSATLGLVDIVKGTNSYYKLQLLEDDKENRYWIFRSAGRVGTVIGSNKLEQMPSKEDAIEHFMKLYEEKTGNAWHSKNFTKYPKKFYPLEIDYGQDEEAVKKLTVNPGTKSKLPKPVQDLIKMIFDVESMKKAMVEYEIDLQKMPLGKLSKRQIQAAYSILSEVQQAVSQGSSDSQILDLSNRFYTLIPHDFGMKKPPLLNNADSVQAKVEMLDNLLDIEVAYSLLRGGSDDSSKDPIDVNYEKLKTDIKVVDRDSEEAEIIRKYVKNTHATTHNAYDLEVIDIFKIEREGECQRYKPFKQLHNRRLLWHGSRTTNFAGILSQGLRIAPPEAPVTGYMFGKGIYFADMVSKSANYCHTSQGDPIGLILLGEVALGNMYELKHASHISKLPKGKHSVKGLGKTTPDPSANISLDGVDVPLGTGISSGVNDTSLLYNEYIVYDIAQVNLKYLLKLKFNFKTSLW
- assay-protocol: stopped-flow fluorescence anisotropy; K1; kinetically derived, Scheme 2 (no ternary complex); 50 mM Tris-HCl pH 7.5, 50 mM NaCl, 1 mM MgCl2, 0.1 mM EDTA, 0.01% IGEPAL; 20 °C (stated for association)
- measurement-setup: protein: recombinant; tags: His tag (Ni-NTA, pET28a); blunt
property-name: pKd
One number for each entry, as −log10 of the molar value.

Req: Any idea what its pKd is? The binder is p18mer* (dsDNA, 5'-phosphate) DNA 1: GGGTTGCGGCCGCTTGGG DNA 2: CCCAAGCGGCCGCAACCC
Resp: 8.31
